- run description: The compound was evaluated for in Vitro binding of AFB1 to DNA in rat liver microsomes; Pre-incubation time being 20 mins
- applied conditions: Microsome
measure: inhibition (%)
Answers are plain numbers, in %.

Reference set (3 entries):
O=c1c(O)c(-c2ccc(O)c(O)c2)oc2cc(O)cc(O)c12 [QUERCETIN]: 5.2
Cc1cc(=O)oc2c(O)c(O)ccc12 [4-METHYLDAPHNETIN]: 8.2
CC(=O)Oc1cc(OC(C)=O)c2c(=O)c(OC(C)=O)c(-c3ccc(OC(C)=O)c(OC(C)=O)c3)oc2c1: 12.8

Now for the molecule whose inhibition we want.
Task: So what's the measured inhibition for this one? CC(=O)Oc1ccc2c(C)cc(=O)oc2c1OC(C)=O
Output: 37.5

* * *

- run description: The compound was evaluated for in Vitro binding of AFB1 to DNA in rat liver microsomes; Pre-incubation time being 10 mins
- applied conditions: Microsome
measure: inhibition (%)
Numbers only, in %.

# map each compound to its inhibition
1. O=c1c(O)c(-c2ccc(O)c(O)c2)oc2cc(O)cc(O)c12
2. CC(=O)Oc1cc(OC(C)=O)c2c(=O)c(OC(C)=O)c(-c3ccc(OC(C)=O)c(OC(C)=O)c3)oc2c1
3. CC(=O)Oc1ccc2c(C)cc(=O)oc2c1OC(C)=O
4. Cc1cc(=O)oc2c(O)c(O)ccc12

Output:
1: 5.7; 2: 6.7; 3: 19; 4: 8.5
